These entries and their values trace back to ChEMBL document CHEMBL4043091.

Species on record: Homo sapiens
procedure-summary: Binding affinity to G-quadruplex DNA in human BJeH-LT cells at 1 uM after 24 hrs by hoechst staining-based immunofluorescence analysis
Assay type: cell-based
Activity calls are given as the source filed them. No cut-off for these calls is given here.
Classes used: true (1) for active, false (0) for inactive

>>> label_class("O=c1[nH]c2sccc2c2ccccc12")
"false (0)"
>>> label_class("Cn1c(=O)c2cc(C(=O)NCCN3CCC(Cc4ccccc4)CC3)sc2c2ccccc21")
"true (1)"
>>> label_class("COC1CCN(C(=O)c2cc(Cc3n[nH]c(=O)c4ccccc34)ccc2F)CC1")
"false (0)"
>>> label_class("O=C(NCCN1CCC(Cc2ccccc2)CC1)c1cc2c(=O)[nH]c3ccccc3c2s1")
"true (1)"
>>> label_class("COC(=O)c1cc2[nH]c(=O)c3ccccc3c2s1")
"true (1)"
>>> label_class("COC(=O)c1cc2c(=O)n(C)c3ccccc3c2s1")
"true (1)"
>>> label_class("CN1C(=O)C2C=C(C(=O)NCCN3CCC(Cc4ccccc4)CC3)SC2c2ccccc21 (stereo unspecified)")
"true (1)"
>>> label_class("Oc1nc(-c2ccc(C(F)(F)F)cc2)nc2c1CSCC2")
"false (0)"
>>> label_class("COC(=O)c1cc2c(=O)[nH]c3ccccc3c2s1")
"true (1)"
>>> label_class("COC(=O)c1cc2c(s1)c1ccccc1c(=O)n2C")
"true (1)"
>>> label_class("Cn1c(=O)c2ccccc2c2sc(C(=O)NCCN3CCC(Cc4ccccc4)CC3)cc21")
"true (1)"

====

target-of-assay: UniProtKB P09874
Sequence (P09874 whole entry): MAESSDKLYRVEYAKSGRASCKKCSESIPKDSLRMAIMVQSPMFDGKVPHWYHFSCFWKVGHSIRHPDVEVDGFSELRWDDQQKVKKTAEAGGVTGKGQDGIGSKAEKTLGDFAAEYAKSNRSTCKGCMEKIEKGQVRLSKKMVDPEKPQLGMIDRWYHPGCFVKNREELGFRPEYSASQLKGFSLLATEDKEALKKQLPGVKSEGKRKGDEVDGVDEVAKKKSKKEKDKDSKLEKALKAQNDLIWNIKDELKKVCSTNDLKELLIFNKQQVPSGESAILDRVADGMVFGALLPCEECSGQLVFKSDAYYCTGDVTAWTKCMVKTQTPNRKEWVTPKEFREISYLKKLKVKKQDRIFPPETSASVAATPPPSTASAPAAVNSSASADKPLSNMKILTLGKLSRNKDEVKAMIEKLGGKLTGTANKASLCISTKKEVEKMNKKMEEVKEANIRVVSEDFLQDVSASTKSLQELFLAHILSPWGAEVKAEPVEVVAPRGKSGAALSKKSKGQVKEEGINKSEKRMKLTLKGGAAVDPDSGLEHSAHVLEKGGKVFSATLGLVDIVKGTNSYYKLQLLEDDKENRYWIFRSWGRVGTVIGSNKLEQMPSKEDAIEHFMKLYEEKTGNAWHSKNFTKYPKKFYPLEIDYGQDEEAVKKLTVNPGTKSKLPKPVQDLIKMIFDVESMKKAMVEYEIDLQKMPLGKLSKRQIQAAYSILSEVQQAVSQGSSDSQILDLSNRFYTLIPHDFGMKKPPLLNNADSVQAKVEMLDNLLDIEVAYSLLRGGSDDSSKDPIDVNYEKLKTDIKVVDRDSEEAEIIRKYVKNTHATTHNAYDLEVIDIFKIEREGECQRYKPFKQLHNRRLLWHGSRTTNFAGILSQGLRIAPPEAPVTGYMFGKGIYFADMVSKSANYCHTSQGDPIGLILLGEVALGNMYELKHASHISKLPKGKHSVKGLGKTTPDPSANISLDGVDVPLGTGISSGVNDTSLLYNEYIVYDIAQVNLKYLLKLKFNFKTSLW
procedure-summary: Inhibition of recombinant human PARP1 expressed in Escherichia coli assessed as reduction of Poly(ADP-ribosyl)ation after 15 mins in presence of [3H]NAD+/cleaved DNA/histones by scintillation counting method
pIC50: −log10 of the molar value.
quantity-name: pIC50

>>> value_reported("O=C(NCCN1CCC(Cc2ccccc2)CC1)c1cc2[nH]c(=O)c3ccccc3c2s1")
6.65

====

We begin with a simple list: items and their reported ΔTm.
Organism: Homo sapiens
procedure-summary: Binding affinity to human telomeric 26 G-quadruplex DNA assessed as change in melting temperature at 10 molequiv after 30 mins by CD spectra analysis
quantity-name: ΔTm

>>> value_reported("Cn1c(=O)c2cc(C(=O)NCCN3CCC(Cc4ccccc4)CC3)sc2c2ccccc21")
"5.5 °C"
>>> value_reported("COC(=O)c1cc2c(s1)c1ccccc1c(=O)n2C")
"1.4 °C"
>>> value_reported("COC(=O)c1cc2c(=O)[nH]c3ccccc3c2s1")
"2.2 °C"
>>> value_reported("O=C(NCCN1CCC(Cc2ccccc2)CC1)c1cc2c(=O)[nH]c3ccccc3c2s1")
"2.6 °C"
>>> value_reported("COC(=O)c1cc2c(=O)n(C)c3ccccc3c2s1")
"0.4 °C"
>>> value_reported("COC(=O)c1cc2[nH]c(=O)c3ccccc3c2s1")
"0.9 °C"
>>> value_reported("Cc1nc2c(O)cccc2c(=O)[nH]1")
"1.1 °C"
>>> value_reported("O=C(NCCN1CCC(Cc2ccccc2)CC1)c1cc2[nH]c(=O)c3ccccc3c2s1")
"2 °C"
>>> value_reported("COC1CCN(C(=O)c2cc(Cc3n[nH]c(=O)c4ccccc34)ccc2F)CC1")
"1.3 °C"
>>> value_reported("Cn1c(=O)c2ccccc2c2sc(C(=O)NCCN3CCC(Cc4ccccc4)CC3)cc21")
"3 °C"

====

Species: Homo sapiens
procedure-summary: Binding affinity to human telomeric 23-p G-quadruplex DNA assessed as change in melting temperature at 10 molequiv after 30 mins by CD spectra analysis
Consider the cut-off 3 °C. If the recorded ΔTm is strictly smaller, the label is Criterion met; if not, the label is Criterion not met.

>>> label_class("Cn1c(=O)c2cc(C(=O)NCCN3CCC(Cc4ccccc4)CC3)sc2c2ccccc21")
"Criterion not met"
>>> label_class("Cn1c(=O)c2ccccc2c2sc(C(=O)NCCN3CCC(Cc4ccccc4)CC3)cc21")
"Criterion not met"
>>> label_class("COC(=O)c1cc2c(=O)n(C)c3ccccc3c2s1")
"Criterion met"
>>> label_class("COC1CCN(C(=O)c2cc(Cc3n[nH]c(=O)c4ccccc34)ccc2F)CC1")
"Criterion met"
>>> label_class("O=C(NCCN1CCC(Cc2ccccc2)CC1)c1cc2[nH]c(=O)c3ccccc3c2s1")
"Criterion not met"
>>> label_class("O=C(NCCN1CCC(Cc2ccccc2)CC1)c1cc2c(=O)[nH]c3ccccc3c2s1")
"Criterion not met"
>>> label_class("COC(=O)c1cc2c(s1)c1ccccc1c(=O)n2C")
"Criterion met"
>>> label_class("Cc1nc2c(O)cccc2c(=O)[nH]1")
"Criterion met"
>>> label_class("COC(=O)c1cc2c(=O)[nH]c3ccccc3c2s1")
"Criterion met"

====

procedure-summary: Binding affinity to human Cy5-labeled telomeric 26 G-quadruplex DNA by […] analysis
quantity-name: Kd (µM)

>>> value_reported("Cn1c(=O)c2cc(C(=O)NCCN3CCC(Cc4ccccc4)CC3)sc2c2ccccc21")
0.24

====

Species on record: Homo sapiens
procedure-summary: Binding affinity to human telomeric 23 G-quadruplex DNA assessed as change in melting temperature at 10 molequiv after 30 mins by CD spectra analysis
Consider the cut-off 0.7 °C. If the recorded ΔTm is strictly smaller, the label is YES; if not, the label is NO.

>>> label_class("Cn1c(=O)c2ccccc2c2sc(C(=O)NCCN3CCC(Cc4ccccc4)CC3)cc21")
"NO"
>>> label_class("COC(=O)c1cc2[nH]c(=O)c3ccccc3c2s1")
"NO"
>>> label_class("O=C(NCCN1CCC(Cc2ccccc2)CC1)c1cc2c(=O)[nH]c3ccccc3c2s1")
"YES"
>>> label_class("COC(=O)c1cc2c(s1)c1ccccc1c(=O)n2C")
"YES"
>>> label_class("COC1CCN(C(=O)c2cc(Cc3n[nH]c(=O)c4ccccc34)ccc2F)CC1")
"YES"
>>> label_class("COC(=O)c1cc2c(=O)n(C)c3ccccc3c2s1")
"YES"
>>> label_class("Cc1nc2c(O)cccc2c(=O)[nH]1")
"YES"
>>> label_class("Cn1c(=O)c2cc(C(=O)NCCN3CCC(Cc4ccccc4)CC3)sc2c2ccccc21")
"NO"
>>> label_class("COC(=O)c1cc2c(=O)[nH]c3ccccc3c2s1")
"NO"
